# tested.on: Serine/threonine-protein kinase 4 (Homo sapiens)
# test.context: at 0.1 µM;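 also: mean inhibition of MST1, reported as part of the GSK PKIS dataset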
reported.metric: inhibition (%)

compound.smiles: COC(=O)c1cncc(/C=C/c2c(C)cc(O)cc2C)c1
tested.on: Serine/threonine-protein kinase 4 (Homo sapiens)
val: 7.04
//
compound.smiles: N#Cc1c(NC(=O)c2ccccc2F)sc2c1CCCC2
tested.on: Serine/threonine-protein kinase 4 (Homo sapiens)
val: -0.37
//
compound.smiles: Nc1ccc(C#Cc2cncnc2Nc2ccc(OCc3cccc(F)c3)c(Cl)c2)cc1
tested.on: Serine/threonine-protein kinase 4 (Homo sapiens)
val: 2.07
//
compound.smiles: ON=C1CCc2cc(-c3nc(C4CCNCC4)[nH]c3-c3ccncc3)ccc21
tested.on: Serine/threonine-protein kinase 4 (Homo sapiens)
val: 2.4
//
compound.smiles: C[C@@H](Oc1cc(-n2cnc3ccc(OCC4CCN(C)CC4)cc32)sc1C(N)=O)c1ccccc1C(F)(F)F
tested.on: Serine/threonine-protein kinase 4 (Homo sapiens)
val: 29.1
//
compound.smiles: Cc1cc(Cl)cc2c1NC(=O)C2=NNc1ccc(S(N)(=O)=O)cc1
tested.on: Serine/threonine-protein kinase 4 (Homo sapiens)
val: 4.01
//
compound.smiles: c1ccc(Nc2ncc(-c3ccccc3)o2)cc1
tested.on: Serine/threonine-protein kinase 4 (Homo sapiens)
val: 2.36
//
compound.smiles: COc1cc(Nc2nccc(-c3cnn4ncccc34)n2)cc(OC)c1
tested.on: Serine/threonine-protein kinase 4 (Homo sapiens)
val: 5.52
//
compound.smiles: Nc1nccc(-c2c(-c3ccc(F)cc3)ncn2CCCN2CCOCC2)n1
tested.on: Serine/threonine-protein kinase 4 (Homo sapiens)
val: 3.71
//
compound.smiles: NS(=O)(=O)c1cccc(-c2cc3ccncc3cc2OCc2ccccc2)c1
tested.on: Serine/threonine-protein kinase 4 (Homo sapiens)
val: 8
//
compound.smiles: CN1CCN(C(=O)c2ccc(NC(=O)Nc3ccc(N(C)c4ccnc(Nc5ccc(CS(C)(=O)=O)cc5)n4)cc3)cc2)CC1
tested.on: Serine/threonine-protein kinase 4 (Homo sapiens)
val: 16.1
//
compound.smiles: FC(F)(F)c1ccc(-c2nn3ncccc3c2-c2ccnc(Nc3ccc4c(c3)OCCO4)n2)cc1
tested.on: Serine/threonine-protein kinase 4 (Homo sapiens)
val: 3.87
//
compound.smiles: COc1cc2ncnc(Nc3ccc(C)c(O)c3)c2cc1OC
tested.on: Serine/threonine-protein kinase 4 (Homo sapiens)
val: 5.24
//
compound.smiles: Cc1cc(O)cc(C)c1/C=C/c1cncc(C(=O)N(C)C)c1
tested.on: Serine/threonine-protein kinase 4 (Homo sapiens)
val: 3.39
//
compound.smiles: O=C1Nc2ccccc2/C1=C/Nc1ccc2[nH]c(=O)[nH]c2c1
tested.on: Serine/threonine-protein kinase 4 (Homo sapiens)
val: 18.1
//
compound.smiles: NS(=O)(=O)c1ccc(Nc2cc(-c3cccc(O)c3)n[nH]2)cc1
tested.on: Serine/threonine-protein kinase 4 (Homo sapiens)
val: 9.01
//
compound.smiles: COC(=O)c1ccc2c(c1)C(=Cc1cc(Br)c(O)c(Br)c1)C(=O)N2
tested.on: Serine/threonine-protein kinase 4 (Homo sapiens)
val: 3.54
//
compound.smiles: NS(=O)(=O)c1ccc(N/N=C2\C(=O)Nc3ccc(Cl)cc32)cc1
tested.on: Serine/threonine-protein kinase 4 (Homo sapiens)
val: 21.2
//
compound.smiles: CCOc1nccc2c1nc(-c1nonc1N)n2CC
tested.on: Serine/threonine-protein kinase 4 (Homo sapiens)
val: 12.1
//
compound.smiles: COc1cc(/C=N/Nc2ncnc3c2cnn3C(C)C)ccc1O
tested.on: Serine/threonine-protein kinase 4 (Homo sapiens)
val: 1.8
//
compound.smiles: O=C1Nc2ccc(-c3cccnc3)cc2C1=Cc1cc(Br)c(O)c(Br)c1
tested.on: Serine/threonine-protein kinase 4 (Homo sapiens)
val: 9.98
